tested on: PC-3; assay: Antiproliferative activity against human PC3 cells incubated for 48 to 72 hrs by MTT assay; type: functional, cell-based
What IC50 was measured for each of the following?
Entry rule: numbers only, all in µM.

Recorded IC50 for COc1c(O)cc2c(c1O)[C@@H]1O[C@H](COC(=O)/C=C/c3ccc(F)cc3)[C@@H](O)[C@H](O)[C@H]1OC2=O , please? 22.9

Same question for COc1c(O)cc2c(c1O)[C@@H]1O[C@H](COC(=O)/C=C/c3cc(F)cc(F)c3)[C@@H](O)[C@H](O)[C@H]1OC2=O please. 46.2

Same question for COc1cc(/C=C/C(=O)OC[C@H]2O[C@H]3c4c(cc(O)c(OC)c4O)C(=O)O[C@@H]3[C@@H](O)[C@@H]2O)cc(OC)c1 please. 26.3
